Values from patent US8901307B2

biological target: human His-PIM2 [23-299] (Homo sapiens, UniProt Q9P1W9); construct: purified human His-PIM2 [23-299] enzyme; His (N); host or cells: E. coli; test: PIM2 in-vitro mobility shift assay (Caliper LC3000, FL-Ahx-Bad phosphorylation); type: biochemical; settings: 1.5 h; percent inhibition at 0.3 uM compound; read-out: PIM2 % I at 0.3 uM
Sequence (Q9P1W9 23-299): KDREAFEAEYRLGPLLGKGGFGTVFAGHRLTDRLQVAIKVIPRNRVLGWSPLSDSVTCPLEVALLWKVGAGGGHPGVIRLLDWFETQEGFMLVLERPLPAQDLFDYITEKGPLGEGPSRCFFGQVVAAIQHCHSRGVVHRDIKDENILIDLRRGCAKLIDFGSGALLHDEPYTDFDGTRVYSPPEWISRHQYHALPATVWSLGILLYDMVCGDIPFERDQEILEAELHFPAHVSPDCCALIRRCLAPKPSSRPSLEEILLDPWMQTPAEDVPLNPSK
Counter-ions that a name gives are not always drawn.
property-name: inhibition at 0.3 µM (%)
Numbers only, in %.

// worked examples, inhibition at 0.3 µM included
compound: CCCCN1CCCN(c2c(Cl)cc(C(F)(F)F)cc2/C=C2\SC(=O)NC2=O)CC1
unit-spec: %
inhibition at 0.3 µM: 25.1
--
compound: NS(=O)(=O)CCCC(=O)N[C@H]1CCN(c2c(Cl)cccc2/C=C2\SC(=O)NC2=O)C1
unit-spec: %
inhibition at 0.3 µM: 49.8
--
compound: COc1cc(/C=C2\SC(=O)NC2=O)c(N2CC[C@H](N(C)C)C2)cc1OC
unit-spec: %
inhibition at 0.3 µM: 89.8
--
compound: CCN(CC)CCOc1ccccc1/C=C1\SC(=O)NC1=O
unit-spec: %
inhibition at 0.3 µM: 25.7
--
compound: O=C1NC(=O)/C(=C/c2cccc(Cl)c2N2CCNCC2)S1 [Example 98, hydrochloride]
unit-spec: %
inhibition at 0.3 µM: 81.4
--
compound: COc1cc(/C=C2\SC(=O)NC2=O)c(N2CCC(O)CC2)cc1OC
unit-spec: %
inhibition at 0.3 µM: 23.3
--
compound: O=C1NC(=O)/C(=C/c2cc(C(F)(F)F)cc(Cl)c2N2CCN(CCCO)CC2)S1
unit-spec: %
inhibition at 0.3 µM: 19.7
--
compound: NCC1CCCN(c2c(Cl)cc(C(F)(F)F)cc2/C=C2\SC(=O)NC2=O)C1 (stereo not shown)
unit-spec: %
inhibition at 0.3 µM: 79.6

Could you report inhibition at 0.3 µM for every entry in the following list?
1. O=C1NC(=O)/C(=C/c2cc(C(F)(F)F)cc(Cl)c2N2CCCN(CCO)CC2)S1
2. N[C@@H]1CCN(c2c(Cl)cccc2/C=C2\SC(=O)NC2=O)C1 [Example 122G, hydrochloride]
3. O=C1NC(=O)/C(=C/c2ccccc2N2CCN(C(=O)C3CCNCC3)CC2)S1
4. O=C1NC(=O)/C(=C/c2cc(C(F)(F)F)cc(Cl)c2N2CCCNCC2)S1
5. NCCCC(=O)N1CCCN(c2ccccc2/C=C2\SC(=O)NC2=O)CC1 [Example 104, hydrochloride]
6. CC(C)N1CCN(c2c(Cl)cc(C(F)(F)F)cc2/C=C2\SC(=O)NC2=O)CC1
7. COc1cc(/C=C2\SC(=O)NC2=O)ccc1OCCN1CCCCC1
8. CC(C)N1CCN(c2ccccc2/C=C2\SC(=O)NC2=O)CC1

49.6
92.1
16.4
79.9
92.4
17.9
6.6
45.4

----------
Biological target: human His-PIM1 [2-313] (Homo sapiens)
Construct: purified human His-PIM1 [2-313] enzyme; His (N); purchased University of Dundee, Scotland; host or cells: baculovirus system
Sequence (P11309 2-313): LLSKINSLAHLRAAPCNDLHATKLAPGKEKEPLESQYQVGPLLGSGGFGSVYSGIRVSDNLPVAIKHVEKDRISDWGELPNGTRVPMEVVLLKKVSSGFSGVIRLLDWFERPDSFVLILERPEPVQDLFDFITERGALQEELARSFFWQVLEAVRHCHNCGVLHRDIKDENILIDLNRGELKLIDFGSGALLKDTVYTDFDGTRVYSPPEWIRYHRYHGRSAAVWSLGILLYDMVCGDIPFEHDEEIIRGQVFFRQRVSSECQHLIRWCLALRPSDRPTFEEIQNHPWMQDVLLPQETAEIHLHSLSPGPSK
Assay: PIM1 in-vitro mobility shift assay (Caliper LC3000, FL-Ahx-Bad phosphorylation)
Type: biochemical
Settings: 1.5 h; percent inhibition at 0.3 uM compound; read-out: PIM1 % I at 0.3 uM
Excerpt: PIM1 In-Vitro Mobility Shift Assay One may determine the activity of purified human His-PIM1 [2-313] enzyme in-vitro using a mobility shift assay on a Caliper LC3000 reader (Caliper, Mass.), which measures fluorescence of a phosphorylated and unphosphorylated FL-Ahx-Bad (FITC-(AHX)RSRHSSYPAGT-COOH, Primm 200606-00289, Primm Biotech, Mass.) and calculates a ratiometric value to determine percent turnover. […]
Counter-ions that a name gives are not always drawn.
property-name: inhibition at 0.3 µM

molecule: CCCN(CCC)[C@@H]1CCCN(c2c(Cl)cccc2/C=C2\SC(=O)NC2=O)C1
property-name: inhibition at 0.3 µM
reported-value: 91.5%
//
molecule: CN(C)CCCOc1ccccc1/C=C1\SC(=O)NC1=O
property-name: inhibition at 0.3 µM
reported-value: < 5%
//
molecule: N[C@H]1CCN(c2c(Cl)cccc2/C=C2\SC(=O)NC2=O)C1 [Example 86, hydrochloride]
property-name: inhibition at 0.3 µM
reported-value: > 95%

Let's switch to this molecule now.
Entry COc1cccc(/C=C2\SC(=O)NC2=O)c1N1CCN(C(=O)CCN)CC1 [Example 94, hydrochloride] , system human His-PIM1 [2-313] (Homo sapiens): what inhibition at 0.3 µM was measured?
> 95%
